From: PubChem BioAssay (NCI)

# Test system: TK-10 renal
# assay method text: NCI tumour cell line growth inhibition, 48 h
endpoint: GI50

Observed GI50 on TK-10 renal, entry COC(=O)OC1C(O[C@H]2C[C@H]3[C@@H]4CC=C5C[C@@H](O)CC[C@]5(C)[C@H]4CC[C@]3(C)[C@H]2[C@H](C)C(=O)CCC(C)C)OCC(O)C1OC1OCC(O)C(O)C1OC(=O)c1ccc(OC)cc1 (some centres undefined) , equals 0.496 µM

Observed GI50 on TK-10 renal, entry "Cc1ccc2c(-c3ccnc(Nc4ccc5c(c4)OCCO5)n3)c(-c3ccc(C(F)(F)F)cc3)nn2n1" , equals 8.11 µM

Observed GI50 on TK-10 renal, entry "COc1ccc(C(=O)c2cc(OC)c(OC)c(OC)c2OC)cc1O" , equals 52.8 µM

Observed GI50 on TK-10 renal, entry "COc1cc2c(cc1Nc1nc(N3CCc4ccccc43)c3cc[nH]c3n1)N(C(=O)CN(C)C)CC2" , equals 1.67 µM

Observed GI50 on TK-10 renal, entry "CNCc1cccc2c1OCCOCCOCCN(C)S(=O)(=O)c1ccc(cc1)-c1cnc(N)c(n1)C(=O)N2" , equals 2.06 µM

Observed GI50 on TK-10 renal, entry CCN(CC)Cc1cc(Nc2nc(NC3CCC(N(C)C)CC3)c3ccccc3n2)ccc1OC (centres undefined) , equals 12 µM

Observed GI50 on TK-10 renal, entry "O=C1C=C[C@H](O)[C@@]2(CO)O[C@@H]12" , equals 16.1 µM

Observed GI50 on TK-10 renal, entry "Cc1cccc(NC(=O)c2sc3nc4c(cc3c2N)C(=O)CCC4)c1" , equals > 100 µM

Observed GI50 on TK-10 renal, entry O=C(/C=C/C12c3ccccc3C(c3ccccc31)C1C(=O)NC(=O)C12)c1ccccn1 (centres undefined) , equals 2.35 µM

* * *

# Test system: ACHN renal
# assay method text: NCI tumour cell line growth inhibition, 48 h
endpoint: GI50

The recorded GI50 for entry "COc1ccc2c(c1)c(-c1nc(-c3c[nH]c4ncccc34)cs1)cn2CCCN1CCOCC1" equals 2.5 µM

The recorded GI50 for entry CC(=O)O[C@H]1C(=O)[C@@]2(C)C([C@H](OC(=O)c3ccccc3)[C@]3(O)C[C@H](OC(=O)[C@H](O)[C@@H](NC(=O)c4ccccc4)c4ccccc4)C(C)=C1C3(C)C)[C@]1(OC(C)=O)CO[C@@H]1C[C@@H]2O (some centres undefined) equals 0.945 µM

The recorded GI50 for entry N#CC(C(=O)C(=O)Nc1c(Cl)cccc1Cl)c1ccccc1 (centres undefined) equals > 100 µM

The recorded GI50 for entry N#CC1c2ccccc2C=CN1C(=O)CCCl (centres undefined) equals 1.73 µM

The recorded GI50 for entry "CNC(=O)c1ncccc1Nc1nc(Nc2cc3c(cc2OC)CCCN3C(=O)CN(C)C)nc2[nH]ccc12" equals 3.23 µM

The recorded GI50 for entry "O=C(NCc1cccc(CNC(=O)Nc2nc3ccccc3[nH]2)c1)Nc1nc2ccccc2[nH]1" equals 4.16 µM

The recorded GI50 for entry "O=C1c2cccc(Oc3ccccc3)c2C(=O)c2cccc(Oc3ccccc3)c21" equals > 100 µM

The recorded GI50 for entry "c1ccc(-c2[nH]ncc2-c2ccnc(-c3ccc(OCCn4ccnc4)cc3)c2)nc1" equals > 25 µM

The recorded GI50 for entry CCN(CC)Cc1cc(Nc2nc(NC3CCC(N(C)C)CC3)c3ccccc3n2)ccc1OC (centres undefined) equals 11 µM
